Let's look at some molecules and their measured Basal Activity.
system: bile acid sensor BreR from V. cholerae; type: cell-based; details: BreR bile acid sensor; basal reporter luminescence; ± SD
Reported property: Basal Activity (Lum × 10^4)

{"columns": ["Smiles", "Result number"],
 "data": [
  ["C[C@H](CCC(=O)O)[C@H]1CC[C@H]2[C@@H]3[C@H](O)C[C@@H]4C[C@H](O)CC[C@]4(C)[C@H]3C[C@H](O)[C@]12C", 2.1],
  ["C[C@H](CCC(=O)O)[C@H]1CC[C@H]2[C@@H]3CC[C@@H]4C[C@H](O)CC[C@]4(C)[C@H]3C[C@H](O)[C@]12C", 1.7],
  ["C[C@H](CCC(=O)O)[C@H]1CC[C@H]2[C@@H]3[C@H](O)C[C@@H]4C[C@H](O)CC[C@]4(C)[C@H]3CC[C@]12C", 1.9],
  ["C[C@H](CCC(=O)O)[C@H]1CC[C@H]2[C@@H]3CC[C@@H]4C[C@H](O)CC[C@]4(C)[C@H]3CC[C@]12C", 2.2]
]}
